Origin of measurements: patent US20230233569A1

test system: Capan-1 (K-Ras G12V); experiment: CellTiter-Glo cell viability assay, 5-day treatment; format: cell-based; details: Homo sapiens, CAPAN-1, 120 h, 5-day treatment; read-out: Capan-1 Cell Viability assay data (K-Ras G12V, IC50)
pIC50: −log10 of the molar value.
parameter: pIC50

Here's what some known entries look like.
[[record]]
compound = "CCn1c(-c2cccnc2[C@H](C)OC)c2c3cc(ccc31)-c1csc(n1)C[C@H](NC(=O)[C@H](C(C)C)N(C)C(=O)N1C[C@H](OC)[C@@H](N)C1)C(=O)N1CCC[C@H](N1)C(=O)OCC(C)(C)C2 (atropisomer, axis not shown) [Example A580]"
result = "6.00 to 7.00"

[[record]]
compound = "CCn1c(-c2cnccc2COC)c2c3cc(ccc31)-c1cc(O)cc(c1)C[C@H](NC(=O)[C@H](C(C)C)N(C)C(=O)[C@H]1CCOC1)C(=O)N1CCC[C@H](N1)C(=O)OCC(C)(C)C2 [Example A26]"
result = "6.00 to 7.00"

[[record]]
compound = "CCn1c(-c2cccnc2[C@H](C)OC)c2c3cc(ccc31)-c1csc(n1)C[C@H](NC(=O)[C@H](C(C)C)N(C)C(=O)N1CC[C@@H](O)C1)C(=O)N1CCC[C@H](N1)C(=O)OCC(C)(C)C2 (atropisomer, axis not shown) [Example A376]"
result = "7.00 to 8.00"


So for CCn1c(-c2cccnc2[C@H](C)OC)c2c3cc(ccc31)-c1cccc(c1)C[C@H](NC(=O)[C@H](C(C)C)N(C)C(=O)[C@H]1CCN(C(=O)CNC)C1)C(=O)N1CCC[C@H](N1)C(=O)OCC(C)(C)C2 [Example A98] , the logged pIC50 turned out to be < 5.00

----------
target: KRAS G12D (Homo sapiens, UniProt P01116+P62937, G12D); assay: Ras-Raf disruption / FRET / MOA assay (BRAF RBD); format: biochemical; details: Ras-Raf disruption, with Cyclophilin A; read-out: KRAS G12D FRET data IC50
Sequence (P01116 1-169 isoform P01116-2 G12D limits assumed): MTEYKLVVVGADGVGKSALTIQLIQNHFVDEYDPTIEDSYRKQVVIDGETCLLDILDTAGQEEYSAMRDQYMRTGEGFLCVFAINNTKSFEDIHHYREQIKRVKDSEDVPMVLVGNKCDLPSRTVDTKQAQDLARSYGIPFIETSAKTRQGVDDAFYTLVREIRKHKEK
Sequence (P62937 whole entry): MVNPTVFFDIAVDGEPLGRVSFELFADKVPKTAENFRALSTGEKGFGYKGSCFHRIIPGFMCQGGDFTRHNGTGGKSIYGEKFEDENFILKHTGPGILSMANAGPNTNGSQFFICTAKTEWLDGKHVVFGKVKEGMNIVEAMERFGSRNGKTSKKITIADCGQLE
parameter: IC50

[[record]]
molecule = "CCn1c(-c2cccnc2[C@H](C)OC)c2c3cc(ccc31)-c1cc(O)cc(c1)C[C@H](NC(=O)[C@H](C(C)C)N(C)C(=O)c1ccc(NC(=O)[C@@H]3CN3)cn1)C(=O)N1CCC[C@H](N1)C(=O)OCC(C)(C)C2 (atropisomer, axis not shown)"
parameter = "IC50"
result = "100 to 1000 nM"

[[record]]
molecule = "CCn1c(-c2cccnc2[C@H](C)OC)c2c3cc(ccc31)-c1csc(n1)C[C@H](NC(=O)[C@H](C(C)C)N(C)C(=O)N1CC(N(C)C(=O)[C@@H]3CN3)C1)C(=O)N1CCC[C@H](N1)C(=O)OCC(C)(C)C2 (atropisomer, axis not shown)"
parameter = "IC50"
result = "1000 to 10000 nM"

[[record]]
molecule = "CCOC(=O)[C@H]1O[C@@H]1C(=O)N1CC[C@H](C(=O)N(C)[C@H](C(=O)N[C@H]2Cc3cc(O)cc(c3)-c3ccc4c(c3)c(c(-c3cccnc3[C@H](C)OC)n4CC)CC(C)(C)COC(=O)[C@@H]3CCCN(N3)C2=O)C(C)C)C1"
parameter = "IC50"
result = "100 to 1000 nM"


Okay, next one:
Case CCn1c(-c2cccnc2[C@H](C)OC)c2c3cc(ccc31)-c1cc(O)cc(c1)C[C@H](NC(=O)[C@H](C(C)C)N(C)C(=O)[C@]1(F)CCN(C(=O)[C@H]3CN3)C1)C(=O)N1CCC[C@H](N1)C(=O)OCC(C)(C)C2 (atropisomer, axis not shown) , KRAS G12D (Homo sapiens, UniProt P01116+P62937, G12D), IC50 recorded as 100 to 1000 nM

----------
test system: Capan-1 (K-Ras G12V); test: CellTiter-Glo cell viability assay, 5-day treatment; type: cell-based; settings: Homo sapiens, CAPAN-1, 120 h, 5-day treatment; read-out: Capan-1 Cell Viability assay data (K-Ras G12V, IC50)
Here the recorded IC50 is given for each entry.

[[record]]
molecule = "CCn1c(-c2cc(C3CCN(C)CC3)cnc2[C@H](C)OC)c2c3cc(ccc31)-c1csc(n1)C[C@H](NC(=O)[C@H](C(C)C)N(C)C(=O)N(C)C)C(=O)N1CCC[C@H](N1)C(=O)OCC(C)(C)C2 (atropisomer, axis not shown)"
parameter = "IC50"
result = "< 10 nM"


Okay, next one:
So for `CCn1c(-c2cccnc2[C@H](C)OC)c2c3cc(ccc31)-c1cc(O)cc(c1)C[C@H](NC(=O)[C@H](C(C)C)N(C)C(=O)[C@H]1CCN(C(=O)[C@H]3CCCN3)C1)C(=O)N1CCC[C@H](N1)C(=O)OCC(C)(C)C2` , the logged IC50 turned out to be 1000 to 10000 nM

----------
target: KRAS WT (Homo sapiens, UniProt P01116+P62937); assay: Ras-Raf disruption / FRET / MOA assay (BRAF RBD); assay type: biochemical; details: Ras-Raf disruption, with Cyclophilin A; read-out: KRAS WT FRET data IC50
Sequence (P01116 1-169 isoform P01116-2 limits assumed, one chain of several): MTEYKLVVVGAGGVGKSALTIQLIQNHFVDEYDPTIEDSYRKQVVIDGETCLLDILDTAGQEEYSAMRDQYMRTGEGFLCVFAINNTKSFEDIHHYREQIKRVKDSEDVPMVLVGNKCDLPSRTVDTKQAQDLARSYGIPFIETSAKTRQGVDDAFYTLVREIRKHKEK
pIC50: −log10 of the molar value.
parameter: pIC50

Here's what some known entries look like.
[[record]]
molecule = "CCn1c(-c2cccnc2[C@H](C)OC)c2c3cc(ccc31)-c1csc(n1)C[C@H](NC(=O)[C@H](C(C)C)N(C)C(=O)N(C)CC1CN(C(=O)[C@@H]3CN3)C1)C(=O)N1CCC[C@H](N1)C(=O)OCC(C)(C)C2 (atropisomer, axis not shown) [Example 294]"
parameter = "pIC50"
result = "6.00 to 7.00"

[[record]]
molecule = "CCn1c(-c2cccnc2[C@H](C)OC)c2c3cc(ccc31)-c1cc(O)cc(c1)C[C@H](NC(=O)[C@H](C(C)C)N(C)C(=O)[C@@H]1CCN(C(=O)[C@H]3CN3)C1)C(=O)N1CCC[C@H](N1)C(=O)OCC(C)(C)C2 (atropisomer, axis not shown) [Example 186]"
parameter = "pIC50"
result = "7.00 to 8.00"

[[record]]
molecule = "CCn1c(-c2cccnc2[C@H](C)OC)c2c3cc(ccc31)-c1cccc(c1)C[C@H](NC(=O)[C@H](C(C)C)N(C)C(=O)[C@H]1CC[C@H](N=C=NC34CC(C3)C4)C1)C(=O)N1CCC[C@H](N1)C(=O)OCC(C)(C)C2 [Example 123]"
parameter = "pIC50"
result = "5.00 to 6.00"

[[record]]
molecule = "CCn1c(-c2cccnc2[C@H](C)OC)c2c3cc(ccc31)-c1cc(O)cc(c1)C[C@H](NC(=O)[C@H](C(C)C)N(C)C(=O)N1CC(NC(=O)[C@H]3CN3)C1)C(=O)N1CCC[C@H](N1)C(=O)OCC(C)(C)C2 (atropisomer, axis not shown) [Example 189]"
parameter = "pIC50"
result = "7.00 to 8.00"

[[record]]
molecule = "CCn1c(-c2cnccc2COC)c2c3cc(ccc31)-c1cccc(c1)C[C@H](NC(=O)[C@H](C(C)C)N(C)C(=O)CCN=C=NCCCN1CCOCC1)C(=O)N1CCC[C@H](N1)C(=O)OCC(C)(C)C2 [17 A and B]"
parameter = "pIC50"
result = "< 5.00"

[[record]]
molecule = "CCn1c(-c2cccnc2[C@H](C)OC)c2c3cc(ccc31)-c1cc(O)cc(c1)C[C@H](NC(=O)[C@H](C(C)C)N(C)C(=O)CN(C)C(=O)[C@H]1C[C@@H]3N[C@@H]3C1)C(=O)N1CCC[C@H](N1)C(=O)OCC(C)(C)C2 (atropisomer, axis not shown) [Example 285]"
parameter = "pIC50"
result = "7.00 to 8.00"


So for CCn1c(-c2cnccc2COC)c2c3cc(ccc31)-c1cccc(c1)C[C@H](NC(=O)[C@H](C(C)C)N(C)C(=O)CCN=C=NCc1ccc(OC)cc1)C(=O)N1CCC[C@H](N1)C(=O)OCC(C)(C)C2 [18 A and B] , the logged pIC50 turned out to be < 5.00

So for CCn1c(-c2cccnc2[C@H](C)OC)c2c3cc(ccc31)-c1csc(n1)C[C@H](NC(=O)[C@H](C(C)C)N(C)C(=O)N1CC[C@H](N(C)C(=O)[C@@H]3CN3)C1)C(=O)N1CCC[C@H](N1)C(=O)OCC(C)(C)C2 (atropisomer, axis not shown) [Example 229] , the logged pIC50 turned out to be 6.00 to 7.00

----------
biological target: KRAS G13C (Homo sapiens, UniProt P01116+P62937, G13C); test: Disruption of BRAF RBD interaction with Ras (FRET / MOA assay, with Cyclophilin A); type: biochemical; conditions: read-out: KRAS G13C FRET data, IC50
Sequence (P01116 1-169 isoform P01116-2 G13C, one chain of several): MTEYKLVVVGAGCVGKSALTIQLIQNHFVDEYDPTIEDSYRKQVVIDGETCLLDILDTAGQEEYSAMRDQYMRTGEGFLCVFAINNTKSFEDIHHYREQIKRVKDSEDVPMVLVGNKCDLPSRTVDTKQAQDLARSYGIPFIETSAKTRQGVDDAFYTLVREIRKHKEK
pIC50: −log10 of the molar value.
parameter: pIC50

Here's what some known entries look like.
[[record]]
compound = "CCn1c(-c2cccnc2[C@H](C)OC)c2c3cc(ccc31)-c1csc(n1)C[C@H](NC(=O)[C@H](C(C)C)N(C)C(=O)N(C)C)C(=O)N1CCC[C@H](N1)C(=O)OCC(C)(C)C2 (racemic)"
targetsystem = "KRAS G13C (Homo sapiens, UniProt P01116+P62937, G13C)"
result = "6.00 to 7.00"

[[record]]
compound = "CCn1c(-c2cccnc2[C@H](C)OC)c2c3cc(ccc31)-c1csc(n1)C[C@H](NC(=O)[C@H](C(C)C)N(C)C(=O)N(C)C1(COC)COC1)C(=O)N1CCC[C@H](N1)C(=O)OCC(C)(C)C2"
targetsystem = "KRAS G13C (Homo sapiens, UniProt P01116+P62937, G13C)"
result = "5.00 to 6.00"

[[record]]
compound = "CCn1c(-c2cccnc2[C@H](C)OC)c2c3cc(ccc31)-c1csc(n1)C[C@H](NC(=O)[C@H](C(C)C)N(C)C(=O)N1CC3(C1)CS(=O)(=O)CCN3C)C(=O)N1CCC[C@H](N1)C(=O)OCC(C)(C)C2"
targetsystem = "KRAS G13C (Homo sapiens, UniProt P01116+P62937, G13C)"
result = "5.00 to 6.00"


So for `CCn1c(-c2cccnc2[C@H](C)OC)c2c3cc(ccc31)-c1cc(O)cc(c1)C[C@H](NC(=O)[C@H](C(C)C)N(C)C(=O)[C@H]1CC[C@@H](CN(C)C)O1)C(=O)N1CCC[C@H](N1)C(=O)OCC(C)(C)C2` , the logged pIC50 turned out to be 7.00 to 8.00

So for CCn1c(-c2cccnc2[C@H](C)OC)c2c3cc(ccc31)-c1cc(O)cc(c1)C[C@H](NC(=O)[C@H](C(C)C)N(C)C(=O)C1CC13CCNC3)C(=O)N1CCC[C@H](N1)C(=O)OCC(C)(C)C2 (stereo partly shown) , the logged pIC50 turned out to be 7.00 to 8.00

So for CCn1c(-c2cccnc2[C@H](C)OC)c2c3cc(ccc31)-c1csc(n1)C[C@H](NC(=O)[C@H](C(C)C)N(C)C(=O)N1CC(CN(C)C)(OC)C1)C(=O)N1CCC[C@H](N1)C(=O)OCC(C)(C)C2 (atropisomer, axis not shown) , the logged pIC50 turned out to be 5.00 to 6.00

So for `CCn1c(-c2cccnc2[C@H](C)OC)c2c3cc(ccc31)-c1csc(n1)C[C@H](NC(=O)[C@H](C(C)C)N(C)C(=O)[C@H]1CCN(C(=O)CN)C1)C(=O)N1CCC[C@H](N1)C(=O)OCC(C)(C)C2` , the logged pIC50 turned out to be 6.00 to 7.00

So for CCn1c(-c2cccnc2[C@H](C)OC)c2c3cc(ccc31)-c1cc(O)cc(c1)C[C@H](NC(=O)[C@H](C(C)C)N(C)C(=O)[C@H]1C[C@@H]1O)C(=O)N1CCC[C@H](N1)C(=O)OCC(C)(C)C2 (single isomer, unassigned) , the logged pIC50 turned out to be 7.00 to 8.00

So for `CCn1c(-c2cccnc2[C@H](C)OC)c2c3cc(ccc31)-c1cc(O)cc(c1)C[C@H](NC(=O)[C@H](C(C)C)N(C)C(=O)[C@H]1CC1(F)F)C(=O)N1CCC[C@H](N1)C(=O)OCC(C)(C)C2` , the logged pIC50 turned out to be 7.00 to 8.00

So for CCn1c(-c2cc(N3CCN(C)CC3)cnc2[C@H](C)OC)c2c3cc(ccc31)-c1csc(n1)C[C@H](NC(=O)[C@H](C(C)C)N(C)C(=O)N1CCOCC1)C(=O)N1CCC[C@H](N1)C(=O)OCC(C)(C)C2 (atropisomer, axis not shown) , the logged pIC50 turned out to be 7.00 to 8.00

So for CCn1c(-c2cccnc2[C@H](C)OC)c2c3cc(ccc31)-c1csc(n1)C[C@H](NC(=O)[C@H](C(C)C)N(C)C(=O)N1C[C@H](OC)[C@@H](N)C1)C(=O)N1CCC[C@H](N1)C(=O)OCC(C)(C)C2 (atropisomer, axis not shown) , the logged pIC50 turned out to be 6.00 to 7.00

So for CCn1c(-c2cnccc2COC)c2c3cc(ccc31)-c1cc(O)cc(c1)C[C@H](NC(=O)[C@H](C(C)C)N(C)C(=O)C1C[C@@H]1C)C(=O)N1CCC[C@H](N1)C(=O)OCC(C)(C)C2 (stereo partly shown) , the logged pIC50 turned out to be 6.00 to 7.00

So for `CCn1c(-c2cccnc2[C@H](C)OC)c2c3cc(ccc31)-c1csc(n1)C[C@H](NC(=O)[C@H](C(C)C)N(C)C(=O)N1CCOC3(CN(C)C3)C1)C(=O)N1CCC[C@H](N1)C(=O)OCC(C)(C)C2` , the logged pIC50 turned out to be 6.00 to 7.00

So for `CCn1c(-c2cccnc2[C@H](C)OC)c2c3cc(ccc31)-c1csc(n1)C[C@H](NC(=O)[C@H](C(C)C)N(C)C(=O)N1C3CC1CN(C)C3)C(=O)N1CCC[C@H](N1)C(=O)OCC(C)(C)C2` , the logged pIC50 turned out to be 6.00 to 7.00

So for CCn1c(-c2cccnc2[C@H](C)OC)c2c3cc(ccc31)-c1csc(n1)C[C@H](NC(=O)[C@H](C(C)C)N(C)C(=O)N1CCC[C@@H](N(C)C)C1)C(=O)N1CCC[C@H](N1)C(=O)OCC(C)(C)C2 (atropisomer, axis not shown) , the logged pIC50 turned out to be 6.00 to 7.00

So for CCn1c(-c2cccnc2[C@H](C)OC)c2c3cc(ccc31)-c1csc(n1)C[C@H](NC(=O)[C@H](C(C)C)N(C)C(=O)N1CC(C#N)C1)C(=O)N1CCC[C@H](N1)C(=O)OCC(C)(C)C2 (atropisomer, axis not shown) , the logged pIC50 turned out to be 6.00 to 7.00
